- SYSTEM: GABAA R (α5β2γ2) (Homo sapiens, UniProt P18507+P31644)
- Construct: expressed in transfected cells
- Sequence (P31644 32-462): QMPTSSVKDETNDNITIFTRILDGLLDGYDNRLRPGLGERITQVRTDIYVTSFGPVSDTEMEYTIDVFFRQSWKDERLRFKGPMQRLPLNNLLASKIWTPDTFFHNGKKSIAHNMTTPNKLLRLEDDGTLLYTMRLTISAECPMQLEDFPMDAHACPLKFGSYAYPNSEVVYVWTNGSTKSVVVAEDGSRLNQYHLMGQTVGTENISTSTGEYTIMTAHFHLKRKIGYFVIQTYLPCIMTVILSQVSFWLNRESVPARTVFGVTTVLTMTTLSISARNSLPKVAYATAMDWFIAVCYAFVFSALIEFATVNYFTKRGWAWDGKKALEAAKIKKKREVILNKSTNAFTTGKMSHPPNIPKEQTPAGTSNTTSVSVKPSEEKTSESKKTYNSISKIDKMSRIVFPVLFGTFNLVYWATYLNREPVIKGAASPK
- Sequence (P47870 25-512 partner limits assumed): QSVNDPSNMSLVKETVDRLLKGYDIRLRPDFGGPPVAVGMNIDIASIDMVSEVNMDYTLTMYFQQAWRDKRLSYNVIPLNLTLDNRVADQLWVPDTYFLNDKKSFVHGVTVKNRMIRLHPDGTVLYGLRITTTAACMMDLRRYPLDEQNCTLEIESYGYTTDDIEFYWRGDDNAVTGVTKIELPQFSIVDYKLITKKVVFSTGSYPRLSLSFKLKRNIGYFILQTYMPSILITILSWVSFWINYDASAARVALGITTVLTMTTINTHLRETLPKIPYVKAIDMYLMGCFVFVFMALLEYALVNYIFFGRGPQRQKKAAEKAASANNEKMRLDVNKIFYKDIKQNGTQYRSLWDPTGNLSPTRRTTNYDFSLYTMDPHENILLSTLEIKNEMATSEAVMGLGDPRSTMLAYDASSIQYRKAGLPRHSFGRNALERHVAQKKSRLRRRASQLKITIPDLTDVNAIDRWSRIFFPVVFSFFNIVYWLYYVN
- Sequence (P18507 40-475): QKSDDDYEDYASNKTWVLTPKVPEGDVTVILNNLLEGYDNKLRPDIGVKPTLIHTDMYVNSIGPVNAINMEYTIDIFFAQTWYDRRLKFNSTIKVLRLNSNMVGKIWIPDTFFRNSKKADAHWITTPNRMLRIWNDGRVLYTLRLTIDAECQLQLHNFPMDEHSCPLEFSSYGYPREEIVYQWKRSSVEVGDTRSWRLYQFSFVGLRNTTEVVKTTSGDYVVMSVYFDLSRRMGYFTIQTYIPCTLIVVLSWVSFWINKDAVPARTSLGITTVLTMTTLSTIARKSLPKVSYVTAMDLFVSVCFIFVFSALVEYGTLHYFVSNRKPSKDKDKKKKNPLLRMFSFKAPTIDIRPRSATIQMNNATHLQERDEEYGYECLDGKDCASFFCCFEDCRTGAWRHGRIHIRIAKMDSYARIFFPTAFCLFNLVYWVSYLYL
- MEASUREMENT PROTOCOL: Positive allosteric modulator activity: potentiation of EC20 GABA current in oocytes
- Assay type: cell-based
- TEST PARAMETERS: read-out: GABA α5 Functional Data: potentiation, @ 100 nM, EC20 GABA; ranges of the column heads
PROPERTY LABEL: activation at 0.1 µM

Check out these entries, answers already filled in.
Lab book: activation at 0.1 µM of "Cn1cc2c(n1)-c1cc(Cl)ccc1-n1cnc(-c3nc(C(C)(C)C)no3)c1C2" noted as 20 to 50%

Lab book: activation at 0.1 µM of "COc1ccc2c(c1)-c1nn(C)cc1Cc1c(-c3ncc(C)o3)ncn1-2" noted as 5 to 20%

Items follow; give activation at 0.1 µM for each.
1. CCn1cc2c(n1)-c1cc(Cl)ccc1-n1cnc(-c3nc(CN4CCCC4)no3)c1C2
2. CCn1cc2c(n1)-c1cc(OC)ccc1-n1cnc(-c3nc(COC)no3)c1C2

Response:
["5 to 20%", "20 to 50%"]

====

- SYSTEM: GABAA R (α5β2γ2) (Homo sapiens, UniProt P18507+P31644)
- Construct: expressed in transfected cells
- MEASUREMENT PROTOCOL: Positive allosteric modulator activity: potentiation of EC20 GABA current in oocytes
- Assay type: cell-based
- TEST PARAMETERS: read-out: GABA α5 Functional Data: potentiation
PROPERTY LABEL: activation at 0.1 µM

Lab book: activation at 0.1 µM of "CCn1cc2c(n1)-c1cc(OC)ccc1-n1cnc(-c3noc(C(F)(F)F)n3)c1C2" noted as 5 to 20%

Lab book: activation at 0.1 µM of "CCn1cc2c(n1)-c1cc(Cl)ccc1-n1cnc(-c3noc(C4(OC)CC4)n3)c1C2" noted as 20 to 50%

Lab book: activation at 0.1 µM of "COc1ccc2c(c1)-c1nn(C(C)C)cc1Cc1c(-c3nc(C4CC4)no3)ncn1-2" noted as 5 to 20%

Items follow; give activation at 0.1 µM for each.
1. Cn1cc2c(n1)-c1cc(Cl)ccc1-n1cnc(-c3noc(C4COC4)n3)c1C2
2. CCn1ncc2c1-c1cc(Cl)ccc1-n1cnc(-c3nc(C4CC4)no3)c1C2
3. Cn1cc2c(n1)-c1cc(Cl)ccc1-n1cnc(-c3nc(CN4CCOCC4)no3)c1C2

Response:
5 to 20%
20 to 50%
> 50%

Items follow; give activation at 0.1 µM for each.
1. COc1ccc2c(c1)-c1nn(C)cc1Cc1c(-c3noc(C4CC4)n3)ncn1-2
2. CCOCc1nc(-c2ncn3c2Cc2cn(C)nc2-c2cc(Cl)ccc2-3)no1

Response:
20 to 50%
5 to 20%

====

What pKi was measured for each of the following?
- SYSTEM: α5β3γ2 GABAA R (Homo sapiens, UniProt P18507+P31644)
- Sequence (P28472 26-473 partner, one chain of several): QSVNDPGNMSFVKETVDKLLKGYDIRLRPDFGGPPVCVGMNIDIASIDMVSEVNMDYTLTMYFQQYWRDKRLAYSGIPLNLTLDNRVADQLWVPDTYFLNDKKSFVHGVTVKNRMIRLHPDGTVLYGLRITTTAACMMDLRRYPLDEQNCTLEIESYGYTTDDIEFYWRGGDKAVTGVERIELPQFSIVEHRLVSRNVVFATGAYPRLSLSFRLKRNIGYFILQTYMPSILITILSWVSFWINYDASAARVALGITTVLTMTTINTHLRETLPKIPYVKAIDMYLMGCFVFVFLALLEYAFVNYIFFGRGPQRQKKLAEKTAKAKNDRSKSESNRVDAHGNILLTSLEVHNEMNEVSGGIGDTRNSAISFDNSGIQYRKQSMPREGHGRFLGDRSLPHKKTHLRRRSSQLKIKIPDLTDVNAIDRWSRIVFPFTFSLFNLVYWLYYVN
- MEASUREMENT PROTOCOL: Binding activity on GABAA R: inhibition of [3H]Ro15-1788 binding, α5 containing receptor
pKi: −log10 of the molar value.

Check out these entries, answers already filled in.
Lab book: pKi of "Cn1cc2c(n1)-c1cc(Cl)ccc1-n1cnc(-c3noc(C4(C)COC4)n3)c1C2" noted as > 7.00

Lab book: pKi of "COc1ccc2c(c1)-c1c(cnn1Cc1ccccc1)Cc1c(-c3nc(C(C)C)no3)ncn1-2" noted as 6.00 to 7.00

Lab book: pKi of "CCn1cc2c(n1)-c1cc(Cl)ccc1-n1cnc(C3=N[C@@H](c4ccccc4)CO3)c1C2" noted as > 7.00

Attention now turns to another entry.
Lab book: pKi of COc1ccc2c(c1)-c1nn(CC3COC3)cc1Cc1c(-c3nc(COC4CCOC4)no3)ncn1-2 (stereo not shown) noted as > 7.00

====

- SYSTEM: GABAA R (α5β2γ2) (Homo sapiens, UniProt P18507+P31644)
- Construct: expressed in transfected cells
- MEASUREMENT PROTOCOL: Positive allosteric modulator activity: potentiation of EC20 GABA current in oocytes
- Assay type: cell-based
- TEST PARAMETERS: read-out: GABA α5 Functional Data: potentiation, @ 100 nM, EC20 GABA; ranges of the column heads
PROPERTY LABEL: activation at 0.1 µM

Check out these entries, answers already filled in.
Field activation at 0.1 µM (GABAA R (α5β2γ2) (Homo sapiens, UniProt P18507+P31644)), entry "COc1ccc2c(c1)-c1nn(C)cc1Cc1c(-c3nc([C@H]4CCOC4)no3)ncn1-2" : 20 to 50%

Field activation at 0.1 µM (GABAA R (α5β2γ2) (Homo sapiens, UniProt P18507+P31644)), entry "Cc1nc(-c2ncn3c2Cc2cn(C)nc2-c2cc(Cl)ccc2-3)no1" : 5 to 20%

Field activation at 0.1 µM (GABAA R (α5β2γ2) (Homo sapiens, UniProt P18507+P31644)), entry "COc1ccc2c(c1)-c1nn(C)cc1Cc1c(-c3noc(C(C)(C)C)n3)ncn1-2" : 5 to 20%

Field activation at 0.1 µM (GABAA R (α5β2γ2) (Homo sapiens, UniProt P18507+P31644)), entry "COc1ccc2c(c1)-c1nn(C)cc1Cc1c(-c3cnn(Cc4ccccn4)c3)ncn1-2" : 5 to 20%

Field activation at 0.1 µM (GABAA R (α5β2γ2) (Homo sapiens, UniProt P18507+P31644)), entry "COc1ccc2c(c1)-c1[nH]ncc1Cc1c(C#CC(C)(C)C)ncn1-2" : 5 to 20%

Items follow; give activation at 0.1 µM for each.
1. COc1ccc2c(c1)-c1c(cnn1CC1CCOC1)Cc1c(-c3nc(C4CC4)no3)ncn1-2 (stereo not shown)
2. COc1ccc2c(c1)-c1nn(C)cc1Cc1c(-c3noc(C4(OC)CC4)n3)ncn1-2
3. COc1ccc2c(c1)-c1nn(CC3CCOC3)cc1Cc1c(-c3nc(C(C)C)no3)ncn1-2 (stereo not shown)
4. COc1ccc2c(c1)-c1nn(C)cc1Cc1c(-c3noc(COCC(F)(F)F)n3)ncn1-2
5. COc1ccc2c(c1)-c1nn(CC3COC3)cc1Cc1c(-c3noc(COCC(F)(F)F)n3)ncn1-2

Response:
1: 5 to 20%; 2: 20 to 50%; 3: 20 to 50%; 4: > 50%; 5: 5 to 20%

====

- SYSTEM: GABAA R (α5β2γ2) (Homo sapiens, UniProt P18507+P31644)
- Construct: expressed in transfected cells
- MEASUREMENT PROTOCOL: Positive allosteric modulator activity: potentiation of EC20 GABA current in oocytes
- Assay type: cell-based
- TEST PARAMETERS: read-out: GABA α5 Functional Data: potentiation, @ 100 nM, EC20 GABA; ranges of the column heads
PROPERTY LABEL: activation at 0.1 µM

Items follow; give activation at 0.1 µM for each.
1. Clc1ccc2c(c1)-c1nn(CC3COC3)cc1Cc1c(-c3nc(C4CC4)no3)ncn1-2
2. Cn1cc2c(n1)-c1cc(Cl)ccc1-n1cnc(-c3nc(C4CCOCC4)no3)c1C2
3. COc1ccc2c(c1)-c1[nH]ncc1Cc1c(C#Cc3cccnc3)ncn1-2
4. Cn1cc2c(n1)-c1cc(Cl)ccc1-n1cnc(-c3cnn(Cc4cccnc4)c3)c1C2
5. COc1ccc2c(c1)-c1nn(C)cc1Cc1c(-c3noc(COC(C)(C)C)n3)ncn1-2
6. Cn1cc2c(n1)-c1cc(Cl)ccc1-n1cnc(-c3noc(C4(C)COC4)n3)c1C2
7. CCn1cc2c(n1)-c1cc(OC)ccc1-n1cnc(-c3nc(C(C)C)no3)c1C2

Response:
1: 20 to 50%; 2: 5 to 20%; 3: 5 to 20%; 4: 5 to 20%; 5: 20 to 50%; 6: 20 to 50%; 7: 5 to 20%

====

- SYSTEM: α5β3γ2 GABAA R (Homo sapiens, UniProt P18507+P31644)
- MEASUREMENT PROTOCOL: Binding activity on GABAA R: inhibition of [3H]Ro15-1788 binding, α5 containing receptor
- TEST PARAMETERS: ranges of the column heads; [3H]Ro15-1788, Ltk cell membranes
pKi: −log10 of the molar value.
What pKi was measured for each of the following?

Check out these entries, answers already filled in.
Lab book: pKi of COc1ccc2c(c1)-c1[nH]ncc1Cc1c(-c3cn(C)nc3C(F)(F)F)ncn1-2 [Compound 81] noted as < 6.00

Lab book: pKi of CC(C)C[C@@H]1COC(c2ncn3c2Cc2cnoc2-c2cc(Cl)ccc2-3)=N1 [Compound 68] noted as < 6.00

Lab book: pKi of CCC(C)(OC)c1nc(-c2ncn3c2Cc2cn(C)nc2-c2cc(OC)ccc2-3)no1 (centres unmarked) [Compound 353] noted as > 7.00

Lab book: pKi of Clc1ccc2c(c1)-c1c(cnn1Cc1ccccc1)Cc1c(C3=N[C@@H](c4ccccc4)CO3)ncn1-2 [Compound 6] noted as < 6.00

Lab book: pKi of COc1ccc2c(c1)-c1[nH]ncc1Cc1c(-c3cn(C)cn3)ncn1-2 [Compound 80] noted as < 6.00

Items follow; give pKi for each.
1. COc1ccc2c(c1)-c1[nH]ncc1Cc1c(-c3nc(C)no3)ncn1-2 [Compound 9]
2. COc1ccc2c(c1)-c1nn(Cc3ccccc3)cc1Cc1c(-c3cnn(Cc4ccccc4)c3)ncn1-2 [Compound 76]
3. Clc1ccc2c(c1)-c1[nH]ncc1Cc1c(-c3cnco3)ncn1-2 [Compound 93]

Response:
1: > 7.00; 2: > 7.00; 3: > 7.00
